Kindly state cytotoxicity at 70.5 h for each of the entries shown.
Test: Human HepG2 cell viability assay in 384 well format
Type: toxicity, cell-based
Design: dose 125 nL, time 70.5 hour; concentration not given beside the values
Conditions: HepG2 cells, read-out: Inhibition
Numbers only, in %.

Check out these entries, answers already filled in.
{"compound": "NC(=O)C1CCN(CCc2ccc(NC(=O)C3CC3)cc2)CC1", "endpoint.value": -3.12}
{"compound": "CC(C)c1noc(CCC(=O)N2CCN(C)CC2c2ccccc2)n1 (centres undefined)", "endpoint.value": -9.08}

Here are 7 compounds. What values of cytotoxicity at 70.5 h were reported for them?
1. COC(=O)c1cc(OC)ccc1NCC(=O)NCC(=O)N1CCCC1
2. Cc1ccccc1CN1CCC(c2nn(CCN)c3nccnc23)C1 (centres undefined)
3. O=S(=O)(NCC(O)c1cccs1)c1ccccc1Cl (centres undefined)
4. CC(c1nccs1)N(C)C(=O)c1cc(CN(C)Cc2ccccc2)on1 (centres undefined)
5. CC(=O)NCCNC(=O)Nc1cc(C(C)(C)C)sc1C#N
6. CCc1cc(N[C@H]2CCC[C@H]2O)n2nccc2n1
7. Cc1noc(C)c1CN1CCC2(CC1)CC(Oc1cccnc1)C2

Result block:
1. -17.6
2. -0.306
3. 11
4. 0.573
5. -1.29
6. 7.67
7. -9.29

* * *

Test: Human HepG2 cell viability assay in 384 well format
Assay type: toxicity, cell-based
Set-up: dose 125 nL, time 70.5 hour; concentration not given beside the values
Settings: HepG2 cells, read-out: Inhibition
Kindly state cytotoxicity at 70.5 h for each of the entries shown.
Give bare numbers, in %.

{"compound": "Cc1noc(C)c1CN1CC2(CCN(C(=O)c3cccn3C)C2)CC1=O (stereo unspecified)", "scale.unit": "%", "cytotoxicity at 70.5 h": -8.3}
{"compound": "c1coc(CN2CCO[C@H]3[C@@H](OCC4CC4)CC[C@@H]32)c1", "scale.unit": "%", "cytotoxicity at 70.5 h": -7.18}

Here are 4 compounds. What values of cytotoxicity at 70.5 h were reported for them?
1. Cc1ccc(C(C)NC(=O)Cc2c(C)nc3c(c2C)c(=O)[nH]n3C)o1 (stereo unspecified)
2. COCCCNC(=O)CCn1nc(C)c2ccccc21
3. O=C(COC1CCCC1)NCCc1noc(-c2ccccn2)n1
4. COC(=O)c1cc(OC)c(OC)cc1N(C)S(C)(=O)=O

Result block:
1. -4.59
2. -2.16
3. -5.96
4. 41.7

* * *

Assay: Human HepG2 cell viability assay in 384 well format
Type: toxicity, cell-based
Set-up: dose 125 nL, time 70.5 hour; concentration not given beside the values
Conditions: HepG2 cells, read-out: Inhibition
Kindly state cytotoxicity at 70.5 h for each of the entries shown.
Give bare numbers, in %.

Check out these entries, answers already filled in.
{"molecule": "COCC(=O)NC[C@H]1C[C@@H]2CCN1C[C@@H]2CN(C)c1ccccc1", "scale.unit": "%", "cytotoxicity at 70.5 h": 0.807}
{"molecule": "COCCN1CCCn2c(nc(CNS(C)(=O)=O)cc2=O)C1", "scale.unit": "%", "cytotoxicity at 70.5 h": -6.97}
{"molecule": "Cc1cc(C)n(CC2CCCN2C(=O)c2ccc3nnc(C)n3c2)n1 (configuration not stated)", "scale.unit": "%", "cytotoxicity at 70.5 h": -0.407}
{"molecule": "COc1ccc(CSCC(O)CO)c(Cl)c1 (configuration not stated)", "scale.unit": "%", "cytotoxicity at 70.5 h": 18.2}
{"molecule": "CCOc1cc(C(=O)N2CCCC(c3noc(C)n3)C2)ccn1 (configuration not stated)", "scale.unit": "%", "cytotoxicity at 70.5 h": -12.6}

Here are 3 molecules. What values of cytotoxicity at 70.5 h were reported for them?
1. CC(C)N1C(=O)C2(CCN(C)CC2)c2cc(F)ccc21
2. CCC1CN(C(=O)Cc2coc(-c3ccccc3)n2)CCO1 (configuration not stated)
3. CCc1n[nH]c(C2CN(C(=O)c3nc(C)ncc3Cl)CCO2)n1 (configuration not stated)

Result block:
[-7.44, -3.32, -7.75]

Here are 2 molecules. What values of cytotoxicity at 70.5 h were reported for them?
1. COc1cc2c(cc1OC)S(=O)(=O)N(Cc1ccc(C)cc1)C2=O
2. Cc1csc(N2CCCN(C(=O)Cc3cccs3)CC2)n1

Result block:
1: -14.5; 2: -5.57

Here are 2 molecules. What values of cytotoxicity at 70.5 h were reported for them?
1. O=C(CN1CCCC1Cn1cncn1)Nc1nncs1 (configuration not stated)
2. Cc1nc(-c2ccncc2)ncc1C(C)NC(=O)Cn1ccccc1=O (configuration not stated)

Result block:
[14.3, 9.51]
